This collection of values is drawn from patent US20260209362A1.

# Experimental System: T1, mouse IL-12Rβ2 expressed on cells (mouse, UniProt P97378 24-874)
# T1 construct: HEK293T cells, stably transduced (cDNA NM_008354); also called mIL-12RB2
# T1 sequence: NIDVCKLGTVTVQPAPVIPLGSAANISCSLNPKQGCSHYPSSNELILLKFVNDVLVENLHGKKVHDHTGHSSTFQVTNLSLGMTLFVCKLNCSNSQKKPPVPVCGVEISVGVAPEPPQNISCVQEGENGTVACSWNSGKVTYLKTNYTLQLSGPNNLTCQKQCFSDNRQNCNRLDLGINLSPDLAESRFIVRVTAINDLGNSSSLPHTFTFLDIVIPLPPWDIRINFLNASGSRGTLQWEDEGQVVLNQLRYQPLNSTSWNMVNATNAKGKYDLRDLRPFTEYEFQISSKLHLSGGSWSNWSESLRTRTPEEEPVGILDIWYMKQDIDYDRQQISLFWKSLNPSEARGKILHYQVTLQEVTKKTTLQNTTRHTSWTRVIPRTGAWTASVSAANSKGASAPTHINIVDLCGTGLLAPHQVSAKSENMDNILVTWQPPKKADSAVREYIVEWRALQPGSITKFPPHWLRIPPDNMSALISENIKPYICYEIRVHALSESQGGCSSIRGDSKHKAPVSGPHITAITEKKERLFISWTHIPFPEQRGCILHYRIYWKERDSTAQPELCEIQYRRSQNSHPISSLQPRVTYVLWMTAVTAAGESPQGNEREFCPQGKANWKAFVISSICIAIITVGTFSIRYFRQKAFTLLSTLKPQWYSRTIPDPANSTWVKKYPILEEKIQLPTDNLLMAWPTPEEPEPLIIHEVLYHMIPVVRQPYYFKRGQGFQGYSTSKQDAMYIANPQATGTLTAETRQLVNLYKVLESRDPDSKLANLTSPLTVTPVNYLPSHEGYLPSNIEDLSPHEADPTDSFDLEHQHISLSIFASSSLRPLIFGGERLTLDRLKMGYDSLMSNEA
# Experiment Notes: flow cytometry, P.E. VHH on HEK293T cells transiently expressing mIL-12RB2
Assay Endpoint: dMFI

>  <Binder>
anti-IL-12Rβ2 VHH clone 3CRHM73 (VHH, not shown: small tags and cut ends, tested as periplasmic extract; also called 21060) VHH: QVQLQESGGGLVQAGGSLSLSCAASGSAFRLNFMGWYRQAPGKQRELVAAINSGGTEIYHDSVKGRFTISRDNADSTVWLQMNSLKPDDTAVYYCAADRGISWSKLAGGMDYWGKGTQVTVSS

>  <Recorded Value>
257

$$$$
>  <Binder>
anti-IL-12Rβ2 VHH clone 3CRHM14 (VHH, not shown: small tags and cut ends, tested as periplasmic extract) VHH: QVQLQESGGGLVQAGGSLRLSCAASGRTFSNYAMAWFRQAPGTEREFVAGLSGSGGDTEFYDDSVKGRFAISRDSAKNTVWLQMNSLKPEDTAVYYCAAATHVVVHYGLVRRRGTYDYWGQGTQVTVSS

>  <Recorded Value>
312

$$$$
>  <Binder>
anti-IL-12Rβ2 VHH clone 3CRHM99 (VHH, not shown: small tags and cut ends, tested as periplasmic extract; also called 21062) VHH: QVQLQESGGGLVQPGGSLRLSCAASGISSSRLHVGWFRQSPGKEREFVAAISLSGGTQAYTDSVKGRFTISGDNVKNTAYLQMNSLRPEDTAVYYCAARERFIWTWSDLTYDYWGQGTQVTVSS

>  <Recorded Value>
251

$$$$
>  <Binder>
anti-IL-12Rβ2 VHH clone 3CAHM11 (VHH, not shown: small tags and cut ends, tested as periplasmic extract) VHH: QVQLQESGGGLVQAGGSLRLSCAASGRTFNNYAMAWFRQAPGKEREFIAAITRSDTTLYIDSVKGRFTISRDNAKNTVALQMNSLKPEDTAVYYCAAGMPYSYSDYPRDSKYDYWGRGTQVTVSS

>  <Recorded Value>
194

$$$$
